Target: T1, human TF ECD-His (hTF-his) (human, UniProt P13726 33-251)
T1 construct: also called bio-hTF-his; human TF-His protein
Assay: SPR Biacore T200, antibody on Protein A chip, TF-His as analyte, 1:1 model
measured.metric: pKd
// scale note: pKd = -log10(conc_M); give the bare number

• hu310-2 (antibody, human IgG1, kappa, V domains shown) VH: EVQLVQSGAEVKKPGASVKVSCKASGYSFTGYYMNWVRQAPGQGLEWMGEINPSTGGSTYNQKFKARVTMTVDQSTSTVYMELSSLRSEDTAVYYCARRELGGPFGYWGQGTTVTVSS VL: SIVMTQSPDSLAVSLGERATINCKASQSVSNGIAWYQQKPGQSPKLLIYFASNRYTGVPDRFSGSGYGTDFTLTISSLQAEDVAVYYCQQDYSSPWTFGGGTKVEIKR = 7.73

# query: pKd of entry hu10H10-29 (antibody, V domains shown, H11+L1; Full-length IgG) VH: EVQLVQSGSELKKPGASVKVSCKASGYTFITYWIEWVKQRPGQGLEWMGDILPYSGSTNYNENFKGRATFSADTSVSTAYLQISSLKAEDTAVYYCARSGYYGNSGFAYWGQGTLVTVSS VL: DIQMTQSPSSLSASVGDRVTITCKSSQSLLSSGNQKNYLTWYQQKPGKAPKLLIYWASTRESGVPSRFSGSGSGTDFTLTISSLQPEDFATYYCQNDYTYPLTFGQGTKLEIK
9.26
